Cited source: patent US20080045547A1

assay: Plasma pharmacokinetic comparison of zaleplon free base and HCl salt after single oral doses; type: in vivo; conditions: male, beagle, dog, plasma, po, 5 mg/kg, male beagle dogs; single oral dose 5.0 mg Free Base/kg; Mean of 5 dogs
Measurement name: AUC(0-inf) (ng·h/mL)

[[record]]
compound = "CCN(C(C)=O)c1cccc(-c2ccnc3c(C#N)cnn23)c1 [zaleplon free base, reference compound]"
measurement_name = "AUC(0-inf)"
test_value = 6940


----------
test: Plasma pharmacokinetic comparison of zaleplon free base and HCl salt after single oral doses; type: in vivo; settings: male, beagle, dog, plasma, po, 2.5 mg HCl Salt/kg, male beagle dogs; single oral dose 2.5 mg HCl Salt/kg; dog H1B108
Measurement name: AUC(0-inf) (ng·h/mL)

[[record]]
compound = "CCN(C(C)=O)c1cccc(-c2ccnc3c(C#N)cnn23)c1.Cl [zaleplon HCl, Zaleplon Hydrochloride]"
test_value = 1360

